# COMPOUND, melting point
records = [
    ("O=C(Nc1nc(-c2ccco2)c(C(=O)c2ccccn2)s1)c1ccc2snnc2c1 [Compound 244]", "213 to 218 °C"),
    ("CCCC(=O)c1sc(NC(=O)c2ccncc2)nc1-c1ccco1 [Compound 382]", "191 to 194 °C"),
    ("Cc1nc(C(=O)c2sc(NC(=O)c3ccncc3)nc2-c2ccco2)sc1C [Compound 351]", "270 to 272 °C (dec.)"),
    ("O=C(Nc1nc(-c2ccco2)c(C(=O)c2ccccn2)s1)c1ccnc(Cl)c1 [Compound 214]", "219 to 225 °C"),
    ("O=C(Nc1nc(-c2ccco2)c(C(=O)C2CCOCC2)s1)c1ccc(Cl)cc1 [Compound 471]", "204 to 206 °C"),
    ("Cn1nnc2ccc(C(=O)Nc3nc(-c4ccco4)c(C(=O)c4ccccn4)s3)cc21 [Compound 245]", "230 to 231 °C"),
    ("O=C(Nc1nc(-c2ccco2)c(C(=O)c2cccnc2)s1)c1ccncc1 [Compound 304]", "245 to 248 °C"),
    ("CCn1cc(C(=O)Nc2nc(-c3ccco3)c(C(=O)C3CCOCC3)s2)cn1 [Compound 520]", "170 to 174 °C"),
]
